System: CAKI-1 renal
assay_info: NCI-60 one-dose screen, 48 h (100 = growth as untreated, 0 = no growth, -100 = all killed)
reported_conditions: 10 µM unless noted
About 83,000 compounds went through this panel and 20% of them were active in at least one assay; those are over-represented in the sample as a whole.
Measured growth, listed per entry.
Please respond with the number in % and leave the unit unwritten.

-- ask Endpoint output: growth of `COC(=O)CNC(=O)C(=O)c1c(O)c(O)c(C(C)C)c2cc(C)c(-c3c(C)cc4c(C(C)C)c(O)c(O)c(C(=O)C(=O)NCC(=O)OC)c4c3O)c(O)c12` . Value?
-- reply 51.4

---
-- ask Endpoint output: growth of `Cc1c2c(cn1Cc1ccccc1)CCc1cn(C)nc1-2` . Value?
-- reply 58.8

-- ask Endpoint output: growth of `CNC(=O)c1cc(Oc2ccc3nc(NC(=O)Nc4cc(C(F)(F)F)cc(C(F)(F)F)c4)sc3c2)ccn1` . Value?
-- reply -17.6

-- ask Endpoint output: growth of Nc1nc(I)c2ncn(C3OC(CO)C(O)C3O)c2n1 (centres undefined) . Value?
-- reply 9.47

-- ask Endpoint output: growth of `Cc1cc(N(CCCNc2ccnc3cc(Cl)ccc23)Cc2ccccn2)nc(N2CCOCC2)n1` . Value?
-- reply 87.8

-- ask Endpoint output: growth of `CCCCNC(=O)c1cc(NCc2cc(O)ccc2O)ccc1O` . Value?
-- reply 87.3

-- ask Endpoint output: growth of `CN(CCCCCCCCNc1ccnc2ccccc12)Cc1ccc(-c2ccc(-c3ccc(C#N)cc3)s2)cc1` . Value?
-- reply -86.5

-- ask Endpoint output: growth of `COc1ccc(N=c2nc3sc4cc(Cl)ccc4n3c(N)c2C#N)cc1` . Value?
-- reply 69.2

-- ask Endpoint output: growth of `C#C[C@]1(O)CC[C@H]2[C@@H]3CC=C4c5sc(N=C(N)N)nc5CC[C@]4(C)[C@H]3CC[C@@]21C` . Value?
-- reply -19.9

Attribution: PubChem BioAssay (NCI)
